- Assay target: Voltage-gated inwardly rectifying potassium channel KCNH2 (Homo sapiens, UniProt Q12809)
- Sequence (Q12809 whole entry): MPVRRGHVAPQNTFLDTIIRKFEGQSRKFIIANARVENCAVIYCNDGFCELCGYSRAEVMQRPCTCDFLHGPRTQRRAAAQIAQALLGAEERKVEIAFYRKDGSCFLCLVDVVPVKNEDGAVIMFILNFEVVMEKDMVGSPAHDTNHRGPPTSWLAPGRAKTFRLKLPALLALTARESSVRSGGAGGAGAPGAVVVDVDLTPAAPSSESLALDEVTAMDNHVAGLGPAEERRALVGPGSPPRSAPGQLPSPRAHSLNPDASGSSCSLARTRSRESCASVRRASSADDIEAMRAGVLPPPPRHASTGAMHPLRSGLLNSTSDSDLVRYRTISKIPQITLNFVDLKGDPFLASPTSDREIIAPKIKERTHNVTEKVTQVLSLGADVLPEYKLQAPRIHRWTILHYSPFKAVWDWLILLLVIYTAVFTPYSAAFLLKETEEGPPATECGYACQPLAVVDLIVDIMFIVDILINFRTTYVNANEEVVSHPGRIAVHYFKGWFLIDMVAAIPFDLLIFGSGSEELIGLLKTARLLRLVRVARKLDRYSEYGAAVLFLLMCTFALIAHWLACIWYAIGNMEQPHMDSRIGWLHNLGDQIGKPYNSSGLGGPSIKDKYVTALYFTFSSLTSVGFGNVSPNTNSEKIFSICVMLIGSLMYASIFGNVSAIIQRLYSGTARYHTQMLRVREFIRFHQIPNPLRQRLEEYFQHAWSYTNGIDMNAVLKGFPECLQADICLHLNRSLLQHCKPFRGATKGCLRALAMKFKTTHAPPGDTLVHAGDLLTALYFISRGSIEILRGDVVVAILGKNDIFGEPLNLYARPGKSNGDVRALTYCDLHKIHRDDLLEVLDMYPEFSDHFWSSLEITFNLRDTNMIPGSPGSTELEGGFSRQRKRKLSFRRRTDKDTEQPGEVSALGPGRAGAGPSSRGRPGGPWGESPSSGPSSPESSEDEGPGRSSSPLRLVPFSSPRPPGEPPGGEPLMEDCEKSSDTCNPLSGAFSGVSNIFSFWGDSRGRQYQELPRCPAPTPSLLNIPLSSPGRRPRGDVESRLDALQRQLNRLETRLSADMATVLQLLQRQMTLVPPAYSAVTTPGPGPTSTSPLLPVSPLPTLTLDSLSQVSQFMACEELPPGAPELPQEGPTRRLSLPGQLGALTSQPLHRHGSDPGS
Recorded metric: IC50

# input Recorded IC50 for "O=C(O)CCc1cc(F)c(OCc2c(-c3ccc(Cl)cc3F)nsc2C(F)(F)F)c(F)c1" , please?
# output > 50 µM

----------
- Assay target: Free fatty acid receptor 4 (Homo sapiens)
- Sequence (Q5NUL3 whole entry, looked up, stated change not applied, canonical isoform): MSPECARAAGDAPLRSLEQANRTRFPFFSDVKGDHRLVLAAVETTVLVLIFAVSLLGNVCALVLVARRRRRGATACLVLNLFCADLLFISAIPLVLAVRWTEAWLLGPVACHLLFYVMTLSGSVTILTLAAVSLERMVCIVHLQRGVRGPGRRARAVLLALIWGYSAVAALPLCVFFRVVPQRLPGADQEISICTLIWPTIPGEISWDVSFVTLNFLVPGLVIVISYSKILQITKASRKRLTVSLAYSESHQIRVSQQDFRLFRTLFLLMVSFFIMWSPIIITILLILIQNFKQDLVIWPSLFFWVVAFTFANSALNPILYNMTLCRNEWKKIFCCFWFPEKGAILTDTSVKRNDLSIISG
- Measurement description: Agonist activity at human GPR120 short splice variant expressed in HEK293 cells assessed as increase in intracellular calcium flux incubated for 30 mins measured for 300 secs at 1 sec interval by Fluo-4 NW dye based FLIPR assay
- Type: functional, cell-based
Recorded metric: EC50 (nM)
One number for each entry, in nM.

Known results for molecules:
[[record]]
chem_smiles = "CCc1ccc(-c2nsc(OC)c2COc2ccc(CCC(=O)O)c(C)c2C)cc1"
assay_target = "Free fatty acid receptor 4 (Homo sapiens)"
numeric_readout = 920

[[record]]
chem_smiles = "O=C(O)CCc1cc(F)c(OCc2c(-c3ccccc3)nsc2C(F)(F)F)c(F)c1"
assay_target = "Free fatty acid receptor 4 (Homo sapiens)"
numeric_readout = 160

[[record]]
chem_smiles = "CCc1ccc(-c2nsc(C(F)(F)F)c2COc2c(F)cc(CCC(=O)O)cc2F)cc1"
assay_target = "Free fatty acid receptor 4 (Homo sapiens)"
numeric_readout = 34

[[record]]
chem_smiles = "O=C(O)CCc1cc(F)c(OCc2c(-c3ccc(Cl)c(F)c3)nsc2C(F)(F)F)c(F)c1"
assay_target = "Free fatty acid receptor 4 (Homo sapiens)"
numeric_readout = 25

[[record]]
chem_smiles = "N#Cc1ccc(-c2nsc(C(F)(F)F)c2COc2c(F)cc(CCC(=O)O)cc2F)cc1"
assay_target = "Free fatty acid receptor 4 (Homo sapiens)"
numeric_readout = 672

[[record]]
chem_smiles = "Cc1c(CCC(=O)O)ccc(OCc2c(-c3ccc(Cl)cc3)nsc2C(F)(F)F)c1C"
assay_target = "Free fatty acid receptor 4 (Homo sapiens)"
numeric_readout = 155

[[record]]
chem_smiles = "Cc1snc(-c2ccc(Cl)cc2)c1COc1ccc(CCC(=O)O)c(C)c1C"
assay_target = "Free fatty acid receptor 4 (Homo sapiens)"
numeric_readout = 106

[[record]]
chem_smiles = "O=C(O)CCc1ccc(OCc2c(-c3ccc(Cl)cc3)nsc2C(F)(F)F)c(Br)c1"
assay_target = "Free fatty acid receptor 4 (Homo sapiens)"
numeric_readout = 31


Now let's try a different one.
# input Would you mind telling me what EC50 value was observed for "CCc1ccc(-c2nsc(C(F)(F)F)c2COc2ccc(CCC(=O)O)c(C)c2C)cc1" ?
# output 120
